Values were extracted from patent US20190262327A1.

# STUDY TARGET: T1, biotinylated synthetic human Amyloid beta 1-42 peptide (human, UniProt P05067 672-713, biotinylated (N-terminal biotin in Example 4))
# T1 construct: domain: Amyloid beta 1-42 peptide; Numbers 1-42 count on the Amyloid beta peptide, not on APP; also called biotinylated human Amyloid beta 1-42; N-terminal biotin Abeta 1-42
# T1 sequence (P05067 672-713 limits assumed): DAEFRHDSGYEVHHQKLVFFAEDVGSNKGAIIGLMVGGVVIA
# ASSAY METHOD TEXT: HTRF epitope competition; purified scFv titrated; competitor Abet0144-GL IgG1-TM
# Procedure: Two thousand and twenty four scFv chosen at random from selection rounds 3 and 4 of the targeted mutagenesis approach described in section 1.2 were expressed in bacteria to produce unpurified periplasmic scFv. One thousand six hundred and seventy two scFv, randomly selected from selection rounds 9 to 11, were screened in an epitope competition assay as described in section 1.3. Where the assay was performed more than once, the absolute range of IC₅₀ values is provided.
QUANTITY MEASURED: IC50 (nM)
Give the number; nM is assumed, so skip it.

Example results:
Abet0383 scFv (scFv, V domains shown, not shown: small tags and cut ends, Purified scFv expressed in E. coli) VH: EVQLLESGGGLVQPGGSLKLSCAASGFTFDWYPMWWVRQAPGKRLEWISVIGADNAKIAYADSVKGRFTISRDNSKNTLYLQMNSLRAEDTAVYYCAREWMGHSRPYYYYGMDVWGQGTPVTVSS VL: SYELTQPPSVSVSPGQTASITCSGHNLGDKFASWYQQKPGQSPVLVIYRDDKRPSGIPERFSASNSGHTATLTISGTQATDEADYYCSSQDTVTRVFGGGTKLTVL; 0.75
Abet0329 scFv (scFv, V domains shown, not shown: small tags and cut ends, Purified scFv expressed in E. coli) VH: EVQLLESGGGLVQPGGSLRLSCAASTFNLKRETMWWVRQAPGKGLEWVSVIGSHQERTSYADSVKGRFTISRDNSKNTLYLQMNSLRAEDTAVYYCAREWMDHSRPYYYYGMDVWGQGTLVTVSS VL: SYELTQPPSVSVSPGQTASITCSGHNVSDKWMTWYQQKPGQSPVLVIYRDDKRPSGIPERFSASNSGHTATLTISGTQATDEADYYCSSQDTVTRVFGGGTKLTVL; 0.63
Abet0374 scFv (scFv, V domains shown, not shown: small tags and cut ends, Purified scFv expressed in E. coli) VH: EVQLLESGGGLVQPGGSLRLSCAASGFQFKDTPMWWVRQAPGKGLEWVSVIGDQNHKKAYADSVKGRFTISRDNSKNTLYLQMNSLRAEDTAVYYCAREWMDHSRPYYYYGMDAWGQGTLVTVSS VL: SYELTQPPSVSVTPGQTASITCSGHNLGGKFASWYQQKPGQSPVLVIYRDDKRPSGIPERFSASNFGHTATLTISGTQATDEADYYCSSQDTVTRVFGGGTKLTVL; 0.42
Abet0379 scFv (scFv, V domains shown, not shown: small tags and cut ends, Purified scFv expressed in E. coli) VH: EVQLLESGGGLVQPGGSLRLSCAASGFDFAETPLWWVRQAPGERLEWVSVIGSNQNKTAYADSVKGRFTISRDNSKDTLYLQMNSLRAEDTAVYYCAREWMDHSRPYYYYGMDVWGQGTLVTVSS VL: QSVLTQPPSVSVSPGQTASITCSGHNLEDKFASWYQQKSGQSPVLVIYRDDKRPSGIPERFSASNSGHTATLTISGTQATDGADYYCATQDNFTRVFGGGTKLTVL; 0.69

Alright, here's another binder for you.
stdin: Need IC50 of Abet0372 scFv (scFv, V domains shown, not shown: small tags and cut ends, Purified scFv expressed in E. coli) VH: EVQLLESGGGLVQPGGSLRLSCAASSDMFNIETMWWVRQAPGKGLEWVSVIGKGMNNVSYADSVKGRFTISRDNSKNTLYLQMNSLRAEDTAVYYCAREWMDHSRPYYYYGMDVWGQGTLVTVSS VL: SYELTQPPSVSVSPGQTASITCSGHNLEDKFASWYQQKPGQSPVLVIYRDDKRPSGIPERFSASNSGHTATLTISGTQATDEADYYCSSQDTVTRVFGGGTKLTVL , thanks.
stdout: 0.38
